B1: ZNF649 (parent)
chain: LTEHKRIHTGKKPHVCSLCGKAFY

- Variants of: B1
- Experiment description: protein stability index of a GFP-peptide fusion (GPS, HEK-293T) (PSI 1-6); higher = more stable;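 note: lentivirally expressed fusions sorted by FACS into six bins by GFP to DsRed ratio, PSI derived from sequencing read proportions per bin multiplied by bin number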
- Assay setup: c terminus: a fixed tail appended
Observable: protein stability index

Examples with their reported protein stability index follow.
{"Construct sequence": "LTEHKRIHTGKKPHVPSLCGKAFY [C16P]", "Observed": 2.56}
{"Construct sequence": "LTEHKRIHTGKKPHVCSLCGYAFY [K21Y]", "Observed": 1.79}
{"Construct sequence": "LTEHKRIHTGKKNHVCSLCGKAFY [P13N]", "Observed": 2.15}
{"Construct sequence": "LTEHKREHTGKKPHVCSLCGKAFY [I7E]", "Observed": 2.71}
{"Construct sequence": "LTEHKRIHTGKKPHVCSLIGKAFY [C19I]", "Observed": 1.75}
{"Construct sequence": "LTEHKRIHTGKKPHVCSLMGKAFY [C19M]", "Observed": 2.46}
{"Construct sequence": "LTEHKRIHTGKKPHSCSLCGKAFY [V15S]", "Observed": 2.23}
{"Construct sequence": "LTEHKRIHTGKKPQVCSLCGKAFY [H14Q]", "Observed": 2.97}

Fill in: protein stability index of LTEHKRIHTPKKPHVCSLCGKAFY [G10P] is ___
3.22

Fill in: protein stability index of LTEHKRIHTGKHPHVCSLCGKAFY [K12H] is ___
1.97

Fill in: protein stability index of LPEHKRIHTGKKPHVCSLCGKAFY [T2P] is ___
2.32
